System: spontaneously hypertensive rats (SHR)
test description: Antihypertensive activity (blood pressure after oral administration)
Format: in vivo
test conditions: SHR, oral 30 mg/kg, 6 hrs after administration, mean ± S.E.
I'd be grateful if you could share measured Blood pressure 6 hrs for these entries.
One number for each entry, in mmHg.

[
  {
    "molecule": "CNc1ncnc2c1ncn2[C@@H]1O[C@H](COC)[C@@H](O)[C@H]1O [Compound 19, N^6-5'-O-dimethyladenosine]",
    "reading unit": "mmHg",
    "Blood pressure 6 hrs": 157
  }
]

Report Blood pressure 6 hrs for every entry below.
1. CO[C@@H]1[C@H](O)[C@@H](CO)O[C@H]1n1cnc2c(N)nc(F)nc21 [Compound 29, 2-fluoro-2'-O-methyladenosine]
2. CNc1ncnc2c1ncn2[C@@H]1O[C@H](CO)[C@@H](O)[C@H]1OC [Compound 17, N^6-2'-O-dimethyladenosine]
3. CNc1nc(C)nc2c1ncn2[C@@H]1O[C@H](CO)[C@@H](O)[C@H]1OC [Compound 21, 2,N^6,2'-O-trimethyladenosine]
4. CCO[C@@H]1[C@H](O)[C@@H](CO)O[C@H]1n1cnc2c(N)nc(C)nc21 [Compound 9, 2-methyl-2'-O-ethyladenosine]
5. COC[C@H]1O[C@@H](n2cnc3c(N)ncnc32)[C@H](O)[C@@H]1O [Compound 11, 5'-O-methyladenosine]

[204, 199, 188, 191, 204]
